Answer each item with its documented inhibition.
Target: Neuropeptide Y receptor type 1 (Homo sapiens)
Test: NPY-Y1 receptor antagonists, retest of hits, confirmation, HEK293-CNG cells, membrane potential fluorescence, triplicate (AID 1254);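 note: 0% = vehicle with agonist plus stimulus and 100% = stimulus alone without agonist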
Details: cAMP, at 3.6 µM, hits give high values, NPY challenge against isoproterenol-raised cAMP
In all, about 1,200 compounds went through this assay and about 250 (21%) were called active. These entries were drawn from the full list.
Expressed in %, but write only the number.

In: What value of inhibition has been reported for the following compound? Clc1ccccc1-c1cc(COc2ccc3ccccc3c2)no1
Out: 13.6

In: # repeat for O=C(/C=C/c1ccco1)Nc1cccc(-c2nc3ccccc3[nH]2)c1
Out: 2.58

In: Also OCC1(CCc2ccccc2)CCN(Cc2ccc3nsnc3c2)CC1 ?
Out: 9.69

In: Please answer likewise for COc1ccc(-c2[nH]nc(-c3ccccc3)c2-c2nc3ccccc3[nH]2)cc1
Out: 13.6

In: Same again, this time with CC(=O)OC(C)C[N+](C)(C)C (stereo not given)
Out: 15.3

====

Please go through the items and note down their inhibition.
Biological target: Neuropeptide Y receptor type 1 (Homo sapiens) (UniProt P25929)
Sequence (P25929 whole entry, looked up): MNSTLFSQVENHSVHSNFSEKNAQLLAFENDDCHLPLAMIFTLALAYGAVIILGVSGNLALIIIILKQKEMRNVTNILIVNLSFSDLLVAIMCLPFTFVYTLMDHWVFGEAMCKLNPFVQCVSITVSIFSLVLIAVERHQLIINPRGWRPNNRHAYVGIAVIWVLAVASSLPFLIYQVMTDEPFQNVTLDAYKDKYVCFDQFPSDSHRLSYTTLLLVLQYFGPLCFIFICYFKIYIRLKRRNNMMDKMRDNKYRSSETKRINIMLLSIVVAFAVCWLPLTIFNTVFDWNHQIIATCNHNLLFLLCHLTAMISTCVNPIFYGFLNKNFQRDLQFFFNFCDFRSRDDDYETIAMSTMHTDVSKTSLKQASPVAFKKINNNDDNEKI
Test: NPY-Y1 receptor antagonists, retest of hits, confirmation, HEK293-CNG cells, membrane potential fluorescence, triplicate (AID 1254);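 note: 0% = vehicle with agonist plus stimulus and 100% = stimulus alone without agonist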
Conditions: cAMP, at 3.6 µM, hits give high values, NPY challenge against isoproterenol-raised cAMP
About 250 (21%) of roughly 1,200 compounds were called active. Not all results are given here.

In: Recorded inhibition of CCCOc1ccc2c3c(c(=O)oc2c1OCCC)CCC3 , please.
Out: 5.13% (inactive)

In: # iterate: CCCCc1c(O)nc2n(c1=O)CCS2
Out: 1.41% (inactive)

In: Quick one: CCCCn1nc(C(=O)N2CCc3ccccc32)c2ccccc2c1=O
Out: 3.55% (inactive)

In: Same question for CC(C)Cn1cnc2c1c(=O)n(CC(O)c1ccccc1)c(=O)n2CC(C)C (configuration not stated) please.
Out: -1.75% (inactive)

In: Similarly, CCOC(=O)CSc1nc2c(sc(=S)n2CCc2ccccc2)c(=O)n1Cc1ccco1 ?
Out: 18.3% (inactive)

In: Try this molecule too: Cc1ccccc1Nc1scc(-c2ccc(Br)cc2)[n+]1-c1ccccc1C
Out: 18.4% (inactive)

In: Moving on to the next molecule: O=C1c2cccnc2C(Nc2ccc(S(=O)(=O)N3CCCCCC3)cc2)N1Cc1ccccc1 (configuration not stated)
Out: 0.2% (inactive)

In: Further, for Oc1ccc(-c2[nH]ncc2-c2nc3ccccc3s2)c(O)c1 ?
Out: 53% (active)

In: Now this one: CCCCCCCCn1c2c(c(=N)c3c1CCC3)CCCC2
Out: 64.7% (active)

In: Continue with COC(=O)C1=C(Nc2ccc(C)cc2)C=C(C)C(C(=O)OC)C1c1ccc(F)cc1 (configuration not stated)
Out: 19% (inactive)

In: Quick one: CCCC(=O)Nc1nc2ccc(NC(=O)c3c(F)c(F)c(OC)c(F)c3F)cc2s1
Out: 6.69% (inactive)

In: What do you have for CCN1CCN(CCNC(=O)c2ccc(/C=C3/Sc4ccccc4N(Cc4cccc(C)c4)C3=O)cc2)CC1 ?
Out: 14.5% (inactive)

In: Could you do the same for CN(C)CCCCCN(C)Cc1cc2ccccc2o1 , please?
Out: 9.51% (inactive)

In: Same question for CCC(=O)c1c[nH]c(C(=O)NCC2CCCO2)c1 (configuration not stated) please.
Out: 0.28% (inactive)

In: Thanks! And O=C(NCCCN1CCOCC1)c1cnn2c(-c3ccccc3)cc(-c3ccccc3)nc12 ?
Out: 25% (active)

In: Ok, now O=C(CSc1nc2cc3c(cc2c(=O)n1CCC1=CCCCC1)OCO3)NCc1ccco1
Out: 4.77% (inactive)

In: Another: Cc1ccc(/C=N/NC(=O)COc2ccccc2-c2ccccc2)cc1
Out: 11.6% (inactive)

In: Field entry: O=C(CSc1nnnn1C1CCCC1)Nc1ccc2c(c1)OCCO2
Out: 10.8% (inactive)

In: And then O=C(NCCc1ccc2c(c1)OCCO2)c1cc2ccccc2o1 , what is it?
Out: 13.2% (inactive)

In: Would you mind doing COc1ccc(C(c2nnnn2C2CCCCC2)N2CCN(c3ccccc3F)CC2)cc1 (configuration not stated) as well?
Out: 15% (inactive)

In: Follow-up item: COc1ccc(C(=O)CSc2nnc(COc3ccccc3)n2Cc2ccco2)cc1
Out: 5.39% (inactive)

In: Another: Cc1ccc(C(=O)N/C(=C/c2ccc(-c3cccc([N+](=O)[O-])c3)o2)C(=O)NCCCN(C)C)cc1
Out: 9.75% (inactive)

The values you see were collected from PubChem BioAssay AID1254.
